Measured values drawn from the supplement of paper PMC9262897 for this set.

- Tested on: E. coli TESEC Alr+ wild-type control
- procedureDetails: growth (OD600 after 10 h); higher = more growth (less inhibition)
- conditionDetails: compound 0.1 mM; raw OD600 reference: median of DMSO wells 0.49, cell-free background 0.052
Counter-ions that a name gives are not always drawn.
Entries annotated with measured growth
# output: bare number, no unit

The cases that follow already have their growth on record.
Q: Please report the measured growth for O=C(Cn1ccnc1[N+](=O)[O-])NCCO
A: 0.471

Q: Note down growth recorded for O=C(O)COCCN1CCN(C(c2ccccc2)c2ccc(Cl)cc2)CC1 (stereo not given) [Cetirizine dihydrochloride]
A: 0.655

Q: Answer with the recorded growth of CC(NCCC(c1ccccc1)c1ccccc1)c1ccccc1 (stereo not given) [Fendiline hydrochloride] only.
A: 0.0558

Q: Give reported growth value for CC(C)(C)NC(=O)[C@@H]1C[C@@H]2CCCC[C@@H]2CN1C[C@@H](O)[C@H](Cc1ccccc1)NC(=O)[C@H](CC(N)=O)NC(=O)c1ccc2ccccc2n1 [Saquinavir mesylate]
A: 0.0807

Then this molecule:
Q: Return reported growth. Input molecule: CC(=O)N(CC(C)C(=O)O)c1c(I)cc(I)c(N)c1I (stereo not given)
A: 0.509

----------
- Test system: E. coli TESEC Mtb Alr
- procedureDetails: growth (OD600 after 10 h); higher = more growth (less inhibition)
- conditionDetails: arabinose 10000 nM; compound 0.1 mM; raw OD600 reference: median of DMSO wells 0.264, cell-free background 0.041
Where a name gives a salt, the structure may show the parent alone.
Measured growth, listed per entry.
Answer with a bare number; do not write a unit.

Sample answers from the record:
Q: Specify measured growth for O=C1CC2(CCCC2)CC(=O)N1CCCCN1CCN(c2ncccn2)CC1 [Buspirone hydrochloride] .
A: 0.28

Q: Retrieve growth measured for CC1(C)S[C@@H]2[C@H](NC(=O)[C@H](N)c3ccccc3)C(=O)N2[C@H]1C(=O)O [Ampicillin trihydrate] and print it.
A: 0.253

Q: Supply measured growth of Cn1c(=O)c2c(ncn2CC(=O)O)n(C)c1=O in your reply.
A: 0.253

Q: State its growth: CC(=O)Oc1cc(C(C)C)c(OCCN(C)C)cc1C [Moxisylyte hydrochoride]
A: 0.273

Q: Give the reported value of growth for this record: CCCCC(C)(O)C/C=C/[C@H]1[C@H](O)CC(=O)[C@@H]1CCCCCCC(=O)OC (mixture of isomers)
A: 0.278

Q: Provide only the value of recorded growth for CCCN(CCC)C(=O)C(CCC(=O)O)NC(=O)c1ccccc1 (configuration not stated) [Proglumide]
A: 0.29

Others:
Q: Quick one: give measured growth for CC1(C)O[C@@H]2C[C@H]3[C@@H]4CCC5=CC(=O)CC[C@]5(C)[C@@]4(F)[C@@H](O)C[C@]3(C)[C@]2(C(=O)CCl)O1 [Halcinonide]
A: 0.259

----------
- Tested on: E. coli TESEC Alr+ wild-type control
- procedureDetails: growth (OD600 after 10 h); higher = more growth (less inhibition)
- conditionDetails: compound 0.1 mM; raw OD600 reference: median of DMSO wells 0.241, cell-free background 0.041
Structures can show the parent of a compound that is named as a salt.
growth: recorded values
Quick one: just the number, no unit, thanks!

Observe how each entry below is paired with its result.
Q: Supply reported growth belonging to this compound: C=CCc1ccccc1OCC(O)CNC(C)C (centres undefined) [Alprenolol hydrochloride]
A: 0.217

Q: # return recorded growth for input COC(=O)Nc1nc2ccc(SC(C)C)cc2[nH]1
A: 0.244

Q: Give the measured growth for CCS(=O)(=O)CCn1c([N+](=O)[O-])cnc1C
A: 0.237

Q: Recall and state the measured growth for CN1C(C)(C)CCCC1(C)C [Pempidine tartrate] .
A: 0.245

New cases:
Q: Provide one value: measured growth of CCCCc1cc2ccccc2c(OCCN(C)C)n1 [Dimethisoquin hydrochloride]
A: 0.177

----------
- Tested on: E. coli TESEC Mtb DapB
- procedureDetails: growth (OD600 after 10 h); higher = more growth (less inhibition)
- conditionDetails: arabinose induction (level): High; compound 0.1 mM; raw OD600 reference: median of DMSO wells […], cell-free background 0.041
Where a name gives a salt, the structure may show the parent alone.
Entries annotated with measured growth
Lab note: jot the number down without any unit.

Q: Please give measured growth of the following entry: CCn1cc(C(=O)O)c(=O)c2cc(F)c(N3CCNCC3)nc21
A: 0.0653

Q: Read the entry NC(=O)OCC(O)COc1ccc(Cl)cc1 (configuration not stated) [Chlorphensin carbamate] and write its reported growth.
A: 0.214

Q: Tell me its growth given CC(C)(C)CC(C)(C)c1ccc(OCOCCOCCO)c(Cc2cc(C(C)(C)CC(C)(C)C)cc(Cc3cc(C(C)(C)CC(C)(C)C)ccc3OCOCCOCCO)c2OCOCCOCCO)c1 as the entry.
A: 0.217

Q: Using known records, supply growth for COc1cccc2c1C(=O)c1c(O)c3c(c(O)c1C2=O)C[C@@](O)(C(=O)CO)C[C@@H]3O[C@H]1C[C@H](N)[C@@H](O)[C@H](C)O1 [Epirubicin hydrochloride]
A: 0.0567

Q: Determine from records and report growth for Cc1cc(C(=O)NNCc2ccccc2)no1
A: 0.211

Q: Return growth for the following compound: CC1=C(CC(=O)O)c2cc(F)ccc2/C1=C\c1ccc([S+](C)[O-])cc1 (configuration not stated)
A: 0.151

Now for a further compound.
Q: Please give measured growth of the following entry: COc1cc(C(=O)NCc2ccc(OCCN(C)C)cc2)cc(OC)c1OC [Trimethobenzamide hydrochloride]
A: 0.203

----------
- System: E. coli TESEC Mtb Alr
- procedureDetails: growth (OD600 after 10 h); higher = more growth (less inhibition)
- conditionDetails: arabinose 100000 nM; compound 0.1 mM; raw OD600 reference: median of DMSO wells 0.201, cell-free background 0.041
Structures can show the parent of a compound that is named as a salt.
Entries and their growth values follow.
# answer = number (no unit)

Q: Return growth for the following molecule: Cn1c([N+](=O)[O-])cnc1COC(N)=O
A: 0.161

Q: Return value of growth for input Nc1nc(=S)c2ncn([C@@H]3O[C@H](CO)[C@@H](O)[C@H]3O)c2[nH]1 , no commentary.
A: 0.0493

Q: Report growth, nothing else, for this molecule: C=CCN1CCCC1CNC(=O)c1cc2nn[nH]c2cc1OC (configuration not stated) [Alizapride HCl]
A: 0.218

Q: Fill in growth for record Nc1ncnc2c1ncn2[C@@H]1O[C@H](CO)[C@@H](O)[C@@H]1O
A: 0.145

Q: Assign growth to the following record: COC(=O)CCc1ccc(OCC(O)CNC(C)C)cc1 (configuration not stated) [Esmolol hydrochloride]
A: 0.218

Q: Item Cc1cccn2c(=O)c(-c3nnn[nH]3)cnc12 : provide growth
A: 0.151

Q: Output measured growth for this item: Cc1cn[nH]c1 [Fomepizole]
A: 0.231

Q: Name the recorded growth of the item COc1ccc(CN2CCN(C(c3ccc(F)cc3)c3ccc(F)cc3)CC2)c(OC)c1OC [Lomerizine hydrochloride] in your answer.
A: 0.137

Others:
Q: Output growth of CC[C@H]1OC(=O)[C@H](C)[C@@H](O[C@H]2C[C@@](C)(OC)[C@@H](O)[C@H](C)O2)[C@H](C)[C@@H](O[C@@H]2O[C@H](C)C[C@H](N(C)C)[C@H]2O)[C@](C)(O)C[C@@H](C)[C@@H]2N[C@@H](COCCOC)O[C@H]([C@H]2C)[C@]1(C)O
A: 0.044

Q: Return reported growth. Input molecule: Cn1c(=O)c2c(ncn2C)n(C)c1=O
A: 0.2

Q: Using the record for COc1ccc2[nH]c([S+]([O-])Cc3ncc(C)c(OC)c3C)nc2n1 (configuration not stated) , state its measured growth.
A: 0.128

Q: Quickly give me recorded growth for Nc1ccc(C(=O)O)c(O)c1
A: 0.201

Q: Look up and state reported growth for C[C@H]1C[C@@H]2[C@H]([C@@H](O)C[C@@]3(C)[C@H]2CC[C@]3(O)C(=O)CO)[C@@]2(C)C=CC(=O)C=C12
A: 0.151

Q: Give growth for the following molecule: CC(C)CC(=O)N[C@H](C(=O)N[C@H](C(=O)N[C@@H](CC(C)C)[C@@H](O)CC(=O)N[C@@H](C)C(=O)N[C@@H](CC(C)C)[C@@H](O)CC(=O)O)C(C)C)C(C)C
A: 0.234

Q: Give the measured growth for CN(C)CC/C=C1/c2ccccc2COc2ccc(CC(=O)O)cc21 [Olopatadine hydrochloride]
A: 0.179

Q: Assign growth to the following record: Nc1ccn([C@@H]2O[C@H](CO)[C@@H](O)[C@@H]2O)c(=O)n1
A: 0.214

Q: Report growth, nothing else, for this molecule: CC(C)OC(=O)CCC/C=C\C[C@@H]1[C@@H](CC[C@@H](O)CCc2ccccc2)[C@H](O)C[C@@H]1O
A: 0.0525

Q: Name the recorded growth of the item O=C1C(=O)c2ccccc2C(O)=C1C1CCC(c2ccc(Cl)cc2)CC1 (configuration not stated) in your answer.
A: 0.151

Q: Give the reported value of growth for this record: CC(=O)[C@H]1CC[C@H]2[C@@H]3C[C@H](C)C4=CC(=O)CC[C@]4(C)[C@H]3[C@@H](O)C[C@]12C
A: 0.123

Q: Give recorded growth. Cc1ccc(-c2ncc(Cl)cc2-c2ccc(S(C)(=O)=O)cc2)cn1
A: 0.184

Q: Specify growth for CCCc1cc(=O)[nH]c(=S)[nH]1 and stop.
A: 0.219

Q: // fetch growth given entry Cc1cc(=O)oc2cc(O)ccc12
A: 0.177

Q: Using known records, supply growth for Cn1c(=O)c2c(ncn2CC(O)CO)n(C)c1=O (configuration not stated)
A: 0.197

Q: Supply growth value. Item: CC=C(C)C(=O)OC1C(OC(C)=O)C2(CO)C(O)CC3(C)C(=CCC4C5(C)CCC(OC6OC(C(=O)O)C(OC7OC(CO)C(O)C(O)C7O)C(O)C6OC6OC(CO)C(O)C(O)C6O)C(C)(CO)C5CCC43C)C2CC1(C)C (configuration not stated)
A: 0.366

Q: // Input: CN(C)C/C=C(/c1ccc(Br)cc1)c1cccnc1 [Zimelidine dihydrochloride monohydrate] . Output its growth only.
A: 0.192

Q: Give reported growth value for CCN(CC)CCNC(=O)c1ccc(N)cc1 [Procainamide hydrochloride]
A: 0.209

Q: Look up and state reported growth for CCN(CC)C(C)CN1c2ccccc2Sc2ccccc21 (configuration not stated) [Ethopropazine hydrochloride]
A: 0.172
